Let's look at some binders and their measured pKd.
Target: T1, hGP130-his (Sino Biological, Catalog #10974) (human, UniProt P40189 23-619)
T1 construct: Bought his-tagged cytokine receptor used as SPR analyte; also called human gp130 receptor subunit; IL6 receptor beta subunit; not shown: his tag
T1 sequence: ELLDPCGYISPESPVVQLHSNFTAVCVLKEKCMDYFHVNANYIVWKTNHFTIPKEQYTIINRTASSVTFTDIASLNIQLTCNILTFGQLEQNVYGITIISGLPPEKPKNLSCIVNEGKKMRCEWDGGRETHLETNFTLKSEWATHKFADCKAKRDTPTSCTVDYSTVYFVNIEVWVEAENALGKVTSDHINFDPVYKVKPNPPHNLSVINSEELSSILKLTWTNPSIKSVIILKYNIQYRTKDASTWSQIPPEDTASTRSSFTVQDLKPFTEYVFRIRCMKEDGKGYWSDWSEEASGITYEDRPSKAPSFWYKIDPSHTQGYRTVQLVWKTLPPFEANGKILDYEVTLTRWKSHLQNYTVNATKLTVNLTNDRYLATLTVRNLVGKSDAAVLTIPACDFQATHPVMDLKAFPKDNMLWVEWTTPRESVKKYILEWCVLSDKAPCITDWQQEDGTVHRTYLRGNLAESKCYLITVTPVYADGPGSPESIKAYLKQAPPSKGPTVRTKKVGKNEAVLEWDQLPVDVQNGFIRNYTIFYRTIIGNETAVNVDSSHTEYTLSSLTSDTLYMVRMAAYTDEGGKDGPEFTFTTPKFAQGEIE
Experiment: SPR Biacore T200; mono-Fc VHH on Protein A chip, hGP130-his analyte
# pKd = -log10(concentration in molar units)

[
  {
    "Binder": "16-DR593 (SEQ ID NO. 234), anti-hGP130 Mono-Fc VHH (Fc fusion, Mono-Fc VHH ligand captured on a Protein A chip; not shown: mono-Fc part) QVQLQESGGGSVQAGGSLRLSCAASGYPYSNGYMGWFRQAPGKEREGVATIYTGDGRTYYADSVKGRFTISRDNAKNTVDLQMSSLKPEDTAMYYCAARAAPLYSSGSPLTRARYNVWGQGTQVTVSS",
    "pKd": 7.09
  },
  {
    "Binder": "17-DR594 (SEQ ID NO. 235), anti-hGP130 Mono-Fc VHH (Fc fusion, Mono-Fc VHH ligand captured on a Protein A chip; not shown: mono-Fc part) QVQLQESGGGSVQAGGSLRLSCVASASTYCTYDMHWYRQAPGKGREFVSAIDSDGTTRYADSVKGRFTISQGTAKNTVYLQMNSLQPEDTAMYYCKTVCVVGSRWSDYWGQGTQVTVSS",
    "pKd": 7.24
  },
  {
    "Binder": "18-DR595 (SEQ ID NO. 236), anti-hGP130 Mono-Fc VHH (Fc fusion, Mono-Fc VHH ligand captured on a Protein A chip; not shown: mono-Fc part) QVQLQESGGGSVQAGGSLTLSCAASEYAYSTCNMGWYRQAPGKERELVSAFISDGSTYYADSVKGRFTITRDNAKNTVYLQMNSLKPEDTAIYYCSANCYRRLRNYWGQGTQVTVSS",
    "pKd": 7.39
  },
  {
    "Binder": "15-DR592 (SEQ ID NO. 233), anti-hGP130 Mono-Fc VHH (Fc fusion, Mono-Fc VHH ligand captured on a Protein A chip; not shown: mono-Fc part) QVQLQESGGGSVQAGGSLRLSCTAPGFTSNSCGMDWYRQAPGKEREFVSSISTDGTTGYADSVKGRFTISKDKAKDTVYLQMNSLKPEDTGMYSCKTKDGTIATMELCDFGYWGQGTQVTVSS",
    "pKd": 7.42
  },
  {
    "Binder": "14-DR591 (SEQ ID NO. 232), anti-hGP130 Mono-Fc VHH (Fc fusion, Tested as Mono-Fc VHH ligand captured on a Protein A chip; not shown: mono-Fc part) QVQLQESGGGSVQAGGSLRLSCTASGAIASGYIDSRWCMAWFRQAPGKEREGVAAIWPGGGLTVYADSVKGRFTISRDHAKNTLYLQMNNLKPEDTAMYYCAAGSPRMCPSLEFGFDYWGQGTQVTVSS",
    "pKd": 7.48
  }
]

Shift focus to the following entry.
# pKd of 19-DR596 (SEQ ID NO. 237), anti-hGP130 Mono-Fc VHH (Fc fusion, Mono-Fc VHH ligand captured on a Protein A chip; not shown: mono-Fc part) QVQLQESGGGLVQPGGSLRLSCTASGLTFDDSVMGWFRQAPGKGREAVSCISSSGANAFYADSVKGRFTISRDNAKNTLYLQMNSLKPEDTATYYCKRGHACAGYYPIPYDDYWGQGTQVTVSS = 7.36
